Provenance of the data: patent US8193208B2

# assayed target: N-type calcium channel (NTCC) (Homo sapiens)
# Sequence (Q00975 whole entry): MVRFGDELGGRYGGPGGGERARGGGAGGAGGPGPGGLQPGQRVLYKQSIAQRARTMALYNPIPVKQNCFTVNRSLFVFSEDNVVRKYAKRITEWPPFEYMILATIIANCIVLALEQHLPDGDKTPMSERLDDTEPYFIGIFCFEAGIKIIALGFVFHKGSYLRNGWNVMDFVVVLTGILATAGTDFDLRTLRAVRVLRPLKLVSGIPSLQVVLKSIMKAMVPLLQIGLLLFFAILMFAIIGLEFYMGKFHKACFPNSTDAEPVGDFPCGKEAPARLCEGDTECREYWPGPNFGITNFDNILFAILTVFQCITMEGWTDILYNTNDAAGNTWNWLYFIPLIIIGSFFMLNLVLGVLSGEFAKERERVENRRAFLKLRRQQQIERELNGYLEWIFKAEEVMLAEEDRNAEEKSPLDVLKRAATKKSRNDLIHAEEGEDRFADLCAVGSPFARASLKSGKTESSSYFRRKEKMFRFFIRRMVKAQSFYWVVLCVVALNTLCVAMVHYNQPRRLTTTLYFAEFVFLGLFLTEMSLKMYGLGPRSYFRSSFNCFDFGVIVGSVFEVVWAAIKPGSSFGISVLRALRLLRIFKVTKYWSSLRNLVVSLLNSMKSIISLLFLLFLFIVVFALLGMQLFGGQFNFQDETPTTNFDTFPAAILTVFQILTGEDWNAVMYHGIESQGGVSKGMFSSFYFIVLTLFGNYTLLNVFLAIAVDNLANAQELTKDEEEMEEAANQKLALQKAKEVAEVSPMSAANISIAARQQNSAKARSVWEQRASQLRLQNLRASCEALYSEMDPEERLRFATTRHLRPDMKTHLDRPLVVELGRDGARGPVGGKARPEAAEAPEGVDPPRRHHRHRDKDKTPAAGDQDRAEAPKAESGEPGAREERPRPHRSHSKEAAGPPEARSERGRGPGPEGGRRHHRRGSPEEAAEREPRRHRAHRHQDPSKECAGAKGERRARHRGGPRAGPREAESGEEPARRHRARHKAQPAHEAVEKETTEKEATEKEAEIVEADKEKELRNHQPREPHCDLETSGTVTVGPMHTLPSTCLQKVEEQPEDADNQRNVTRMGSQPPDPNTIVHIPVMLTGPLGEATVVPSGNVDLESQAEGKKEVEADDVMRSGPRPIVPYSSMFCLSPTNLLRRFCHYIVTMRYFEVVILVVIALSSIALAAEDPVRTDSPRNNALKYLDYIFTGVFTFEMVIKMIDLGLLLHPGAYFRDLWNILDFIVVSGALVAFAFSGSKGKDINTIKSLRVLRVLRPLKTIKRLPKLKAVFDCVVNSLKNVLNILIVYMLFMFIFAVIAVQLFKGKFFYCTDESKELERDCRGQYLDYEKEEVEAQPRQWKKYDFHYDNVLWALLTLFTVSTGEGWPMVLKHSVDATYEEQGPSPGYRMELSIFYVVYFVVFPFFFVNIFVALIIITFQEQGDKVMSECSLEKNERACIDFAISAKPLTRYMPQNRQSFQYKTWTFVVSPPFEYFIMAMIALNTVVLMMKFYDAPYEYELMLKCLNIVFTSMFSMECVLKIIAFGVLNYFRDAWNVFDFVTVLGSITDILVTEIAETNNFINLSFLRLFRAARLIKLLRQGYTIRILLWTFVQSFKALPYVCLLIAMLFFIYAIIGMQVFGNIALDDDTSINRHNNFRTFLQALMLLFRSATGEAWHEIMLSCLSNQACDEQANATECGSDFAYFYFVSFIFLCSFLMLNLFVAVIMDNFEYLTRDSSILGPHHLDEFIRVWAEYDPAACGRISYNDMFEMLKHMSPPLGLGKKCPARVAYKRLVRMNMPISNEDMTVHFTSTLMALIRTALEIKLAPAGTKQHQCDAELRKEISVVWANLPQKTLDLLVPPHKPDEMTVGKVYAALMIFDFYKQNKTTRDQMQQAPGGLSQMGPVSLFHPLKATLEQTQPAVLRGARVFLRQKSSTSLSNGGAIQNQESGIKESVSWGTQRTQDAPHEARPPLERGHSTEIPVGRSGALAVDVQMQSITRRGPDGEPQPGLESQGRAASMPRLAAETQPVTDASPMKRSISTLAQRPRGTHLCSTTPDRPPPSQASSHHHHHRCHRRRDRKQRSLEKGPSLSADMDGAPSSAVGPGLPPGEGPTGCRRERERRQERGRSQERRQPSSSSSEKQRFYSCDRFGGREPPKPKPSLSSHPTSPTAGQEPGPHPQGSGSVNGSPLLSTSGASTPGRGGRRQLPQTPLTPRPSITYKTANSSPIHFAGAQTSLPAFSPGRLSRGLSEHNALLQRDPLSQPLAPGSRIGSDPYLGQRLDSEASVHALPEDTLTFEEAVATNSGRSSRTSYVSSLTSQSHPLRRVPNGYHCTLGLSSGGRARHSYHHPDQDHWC
# Sequence (P54289 25-956 partner limits assumed): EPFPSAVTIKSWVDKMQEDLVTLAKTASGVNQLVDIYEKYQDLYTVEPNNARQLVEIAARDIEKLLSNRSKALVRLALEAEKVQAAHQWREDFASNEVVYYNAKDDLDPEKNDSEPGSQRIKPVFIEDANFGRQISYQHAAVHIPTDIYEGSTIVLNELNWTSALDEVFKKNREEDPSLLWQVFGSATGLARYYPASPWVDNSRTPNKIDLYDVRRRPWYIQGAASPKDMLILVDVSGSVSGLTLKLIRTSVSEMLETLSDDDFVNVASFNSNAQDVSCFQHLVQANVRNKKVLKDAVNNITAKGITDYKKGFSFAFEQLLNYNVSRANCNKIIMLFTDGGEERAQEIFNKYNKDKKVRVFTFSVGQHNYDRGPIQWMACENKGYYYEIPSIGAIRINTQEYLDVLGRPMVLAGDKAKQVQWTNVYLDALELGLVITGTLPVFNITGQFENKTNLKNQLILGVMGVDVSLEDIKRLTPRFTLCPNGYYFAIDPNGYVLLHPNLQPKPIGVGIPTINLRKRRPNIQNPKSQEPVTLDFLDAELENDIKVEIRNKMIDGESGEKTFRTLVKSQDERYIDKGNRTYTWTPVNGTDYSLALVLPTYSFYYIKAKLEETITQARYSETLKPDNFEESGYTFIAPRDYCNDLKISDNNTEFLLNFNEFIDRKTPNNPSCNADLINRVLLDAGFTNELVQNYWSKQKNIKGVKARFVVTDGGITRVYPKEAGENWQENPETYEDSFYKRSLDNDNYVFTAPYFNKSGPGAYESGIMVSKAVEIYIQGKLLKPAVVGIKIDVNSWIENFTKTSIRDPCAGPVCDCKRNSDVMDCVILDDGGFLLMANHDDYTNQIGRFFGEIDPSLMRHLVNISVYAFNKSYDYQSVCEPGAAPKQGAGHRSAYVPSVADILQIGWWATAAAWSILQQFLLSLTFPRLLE
# Sequence (P54289 957-1103 partner limits assumed): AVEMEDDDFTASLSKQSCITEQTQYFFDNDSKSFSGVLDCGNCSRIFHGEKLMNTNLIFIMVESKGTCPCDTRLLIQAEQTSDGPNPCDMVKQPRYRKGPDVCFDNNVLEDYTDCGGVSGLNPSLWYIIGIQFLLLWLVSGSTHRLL
# Sequence (Q02641 whole entry partner): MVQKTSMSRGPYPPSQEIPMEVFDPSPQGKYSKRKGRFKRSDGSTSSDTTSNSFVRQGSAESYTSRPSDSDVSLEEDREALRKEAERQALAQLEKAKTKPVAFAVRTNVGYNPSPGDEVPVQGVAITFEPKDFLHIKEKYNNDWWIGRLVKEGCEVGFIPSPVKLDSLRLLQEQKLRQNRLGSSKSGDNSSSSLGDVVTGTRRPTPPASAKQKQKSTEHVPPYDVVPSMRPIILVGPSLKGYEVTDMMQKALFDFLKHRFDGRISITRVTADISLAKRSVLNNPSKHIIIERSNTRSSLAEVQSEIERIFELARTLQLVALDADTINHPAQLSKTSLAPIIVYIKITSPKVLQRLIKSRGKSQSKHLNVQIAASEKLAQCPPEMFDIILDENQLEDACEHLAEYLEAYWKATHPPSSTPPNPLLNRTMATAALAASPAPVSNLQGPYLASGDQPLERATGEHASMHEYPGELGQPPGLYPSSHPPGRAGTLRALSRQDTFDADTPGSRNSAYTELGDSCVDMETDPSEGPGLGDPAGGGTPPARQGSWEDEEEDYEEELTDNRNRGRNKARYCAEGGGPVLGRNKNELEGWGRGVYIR
# test protocol: FLIPR calcium mobilization assay for N-type calcium channel (differentiated IMR32 cells)
# Assay type: cell-based
# Parameters: endogenous in cells; host or cells: IMR32 cells (ATCC), differentiated 8 days with dibutyryl cAMP and bromodeoxyuridine
# reported conditions: calcium mobilization in vitro assay; N-type calcium channel block
// assign rule met if IC50 falls strictly below 3 µM, else rule not met (ties count as rule not met)

Consider the worked cases shown below.
(Q) # TODO verify IC50 < 3 µM strictly for this molecule: COc1ccc(CN(C)C(CC(C)C)C(=O)N2CCC3(CC2)OC(=O)c2ccccc23)cc1 (centres unmarked)
(A) rule not met

(Q) # TODO verify IC50 < 3 µM strictly for this molecule: `COc1ccc(C(=O)N2CCC3(C=Cc4ccccc43)CC2)cc1C(F)(F)F`
(A) rule met

(Q) # TODO verify IC50 < 3 µM strictly for this molecule: `O=C1OC2(CCN(C(=O)CC(c3ccccc3)c3ccccc3)CC2)c2ccccc21`
(A) rule met

(Q) # TODO verify IC50 < 3 µM strictly for this molecule: `Fc1ccc(C(CCCN2CCC3(CC2)OCc2ccccc23)c2ccc(F)cc2)cc1`
(A) rule met

(Q) # TODO verify IC50 < 3 µM strictly for this molecule: `O=C(CC=C(c1ccc(F)cc1)c1ccc(F)cc1)N1CCC2(C=Cc3ccccc32)CC1`
(A) rule not met

(Q) # TODO verify IC50 < 3 µM strictly for this molecule: `O=C1OC2(CCN(CCCC(c3ccc(F)cc3)c3ccc(F)cc3)CC2)c2ccccc21`
(A) rule met

(Q) # TODO verify IC50 < 3 µM strictly for this molecule: `O=C1OC2(CCN(CCC(=O)N(c3ccc(F)cc3)c3ccc(F)cc3)CC2)c2ccccc21`
(A) rule met

(Q) # TODO verify IC50 < 3 µM strictly for this molecule: `O=C1OC2(CCN(C(=O)c3ccc(OCC(F)(F)F)nc3)CC2)c2ccccc21`
(A) rule not met

(Q) # TODO verify IC50 < 3 µM strictly for this molecule: `COc1ccc(CN2CCC3(C=Cc4ccccc43)CC2)cc1`
(A) rule met

Shift focus to the following entry.
(Q) # TODO verify IC50 < 3 µM strictly for this molecule: `C1=CC2(CCN(CCC=C3c4ccccc4CCc4ccccc43)CC2)c2cccnc21`
(A) rule met
